The measurements presented in this section are drawn from patent US20230348426A1.

Provide the reported pEC50 of each item.
Target: human FPR1 (Homo sapiens (Human))
Sequence (P21462 whole entry): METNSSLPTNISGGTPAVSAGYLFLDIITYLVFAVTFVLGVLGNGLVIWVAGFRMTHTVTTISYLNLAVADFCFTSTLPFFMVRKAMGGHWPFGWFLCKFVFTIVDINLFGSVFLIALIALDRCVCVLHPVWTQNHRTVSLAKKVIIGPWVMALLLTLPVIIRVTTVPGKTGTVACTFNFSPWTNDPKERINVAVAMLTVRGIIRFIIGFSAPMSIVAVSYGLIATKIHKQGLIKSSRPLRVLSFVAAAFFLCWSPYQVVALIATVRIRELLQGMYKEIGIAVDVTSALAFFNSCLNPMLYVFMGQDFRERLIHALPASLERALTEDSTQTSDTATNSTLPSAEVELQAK
Test: FPR1 cyclic adenosine monophosphate (cAMP) assay
Settings: CHO cells overexpressing human FPR1; forskolin 10 µM; inhibition of cAMP production; read-out: hFPR1 cAMP EC50
Give bare numbers, as −log10 of the molar value.

Worked examples, 5 compounds total:
compound="COc1cc(F)c([C@@H]2CN(c3c(C)ccn(C)c3=O)C(=O)[C@H]2NC(=O)c2ccc(OC(F)(F)F)cc2)c(F)c1 [Example 291]" measured_metric=pEC50 numeric_readout=8.18
compound="COc1cc(F)c([C@@H]2CN(c3nc(C4CCNCC4)ccc3C(F)(F)F)C(=O)[C@H]2NC(=O)c2ccc(OC(F)F)cc2)c(F)c1 [Example 270]" measured_metric=pEC50 numeric_readout=6.74
compound="COc1cc(F)c([C@@H]2CN(c3ccc(CO)n(C)c3=O)C(=O)[C@H]2NC(=O)c2ccc(OC(F)F)cc2)c(F)c1 [Example 243]" measured_metric=pEC50 numeric_readout=6.77
compound="COCCn1ccc(C)c(N2C[C@@H](c3ccc(OC)cc3)[C@H](NC(=O)c3ccc(OC(F)(F)F)cc3)C2=O)c1=O [Example 178]" measured_metric=pEC50 numeric_readout=10.00
compound="O=C(N[C@@H]1C(=O)N(c2cccn(CC(O)C(F)(F)F)c2=O)C[C@H]1c1ccc(Cl)cc1)c1ccc(OC(F)(F)F)cc1 (stereo partly drawn) [Example 355]" measured_metric=pEC50 numeric_readout=8.40

Challenge: What pEC50 value was documented for this compound, COc1cc(F)c([C@@H]2CN(c3c(C)ccn(CC4CNC(=O)O4)c3=O)C(=O)[C@H]2NC(=O)c2ccc(OC(F)F)cc2)c(F)c1 (stereo partly drawn) [Example 665] ?
Response given: 8.13

###

Target: human FPR2 (Homo sapiens (Human), UniProt P25090)
Sequence (P25090 whole entry): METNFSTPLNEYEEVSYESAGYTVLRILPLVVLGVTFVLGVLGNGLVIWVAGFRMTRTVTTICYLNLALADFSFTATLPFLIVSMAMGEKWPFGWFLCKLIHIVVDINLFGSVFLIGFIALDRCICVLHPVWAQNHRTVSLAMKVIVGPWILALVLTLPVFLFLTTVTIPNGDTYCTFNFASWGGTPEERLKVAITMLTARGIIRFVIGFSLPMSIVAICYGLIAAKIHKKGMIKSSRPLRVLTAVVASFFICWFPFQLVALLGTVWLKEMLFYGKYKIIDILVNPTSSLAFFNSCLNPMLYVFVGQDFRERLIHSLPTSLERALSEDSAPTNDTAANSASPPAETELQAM
Assay: FPR2 cyclic adenosine monophosphate (cAMP) assay
Conditions: CHO cells overexpressing human FPR2; forskolin 5 µM; inhibition of cAMP production; read-out: hFPR2 cAMP2 EC50
Procedure: N-formyl peptide receptors (FPRs) are a family of chemo attractant receptors that facilitate leukocyte response during inflammation. FPRs belong to the seven-transmembrane G protein-coupled receptor superfamily and are linked to inhibitory G-proteins (Gi). […] FPR2 and FPR1 Cyclic Adenosine Monophosphate (cAMP) Assays. […] The level of intracellular cAMP was determined using the HTRF HiRange cAMP assay reagent kit (Cisbio) according to manufacturer’s instruction. […]
measured_metric: pEC50
Answers are plain numbers, as −log10 of the molar value.

Worked examples, 2 molecules total:
molecule=O=C(N[C@@H]1C(=O)N(c2cccn(CCO)c2=O)C[C@H]1c1ccc(Cl)cc1)c1ccc(OC(F)(F)F)cc1 measured_metric=pEC50 numeric_readout=8.55
molecule=COc1cc(F)c([C@@H]2CN(c3cccn(C(F)F)c3=O)C(=O)[C@H]2NC(=O)c2ccc(Cl)cc2)c(F)c1 measured_metric=pEC50 numeric_readout=8.57

Challenge: What pEC50 value was documented for this molecule, COc1cc(F)c([C@@H]2CN(c3cccn(CC(C)O)c3=O)C(=O)[C@H]2NC(=O)c2ccc(OC(F)(F)F)cc2)c(F)c1 (stereo partly drawn) [Example 89] ?
Response given: 8.62

###

Provide the reported EC50 of each item.
Target: human FPR2 (Homo sapiens (Human), UniProt P25090)
Assay: FPR2 cyclic adenosine monophosphate (cAMP) assay
Conditions: CHO cells overexpressing human FPR2; forskolin 5 µM; inhibition of cAMP production; read-out: hFPR2 cAMP2 EC50
Numbers only, in nM.

Worked examples, 3 compounds total:
compound=COc1cc(F)c([C@@H]2CN(c3nccc(NCCO)c3C(F)(F)F)C(=O)[C@H]2NC(=O)c2ccc(Cl)cc2)c(F)c1 numeric_readout=4.8
compound="COCC(CO)n1cccc(N2C[C@@H](c3ccc(Cl)cc3)[C@H](NC(=O)c3ccc(OC(F)F)cc3)C2=O)c1=O (stereo partly shown) [Example 118]" numeric_readout=3.1
compound=COc1cc(F)c([C@@H]2CN(c3ccn(CC(F)F)n3)C(=O)[C@H]2NC(=O)c2ccc(OC(F)(F)F)cc2)c(F)c1 numeric_readout=4

Here is another compound to look at.
Challenge: What EC50 value was documented for this compound, COc1ccc([C@@H]2CN(c3ccnn(CC(F)F)c3=O)C(=O)[C@H]2NC(=O)c2ccc(OC(F)(F)F)cc2)cc1 ?
Response given: 3.8

###

Biological target: UniProtKB P21462
Experiment: FPR1 cyclic adenosine monophosphate (cAMP) assay
Details: CHO cells overexpressing human FPR1; forskolin 10 µM; inhibition of cAMP production; read-out: hFPR1 cAMP EC50
measured_metric: EC50

compound_smiles=COc1cc(C2CC2)nc(N2C(=O)[C@@H](NC(=O)c3ccc(OC(F)(F)F)cc3)[C@H](c3c(F)cc(OC)cc3F)[C@@H]2C)c1 result="> 5 µM"
compound_smiles=COc1cc(C2CCNCC2)nc(N2C(=O)[C@@H](NC(=O)c3ccc(OC(F)F)cc3)[C@H](c3c(F)cc(OC)cc3F)[C@@H]2C)c1 result="> 5 µM"

Challenge: What EC50 value was documented for this compound, COc1cc(F)c([C@@H]2CN(c3c(C#N)ccn(C)c3=O)C(=O)[C@H]2NC(=O)c2ccc(Cl)cc2)c(F)c1 ?
Response given: > 5 µM

###

Target: human FPR2 (Homo sapiens (Human))
Experiment: FPR2 cyclic adenosine monophosphate (cAMP) assay
Settings: CHO cells overexpressing human FPR2; forskolin 5 µM; inhibition of cAMP production; read-out: hFPR2 cAMP2 EC50
Procedure: N-formyl peptide receptors (FPRs) are a family of chemo attractant receptors that facilitate leukocyte response during inflammation. FPRs belong to the seven-transmembrane G protein-coupled receptor superfamily and are linked to inhibitory G-proteins (Gi). […] FPR2 and FPR1 Cyclic Adenosine Monophosphate (cAMP) Assays. […] The level of intracellular cAMP was determined using the HTRF HiRange cAMP assay reagent kit (Cisbio) according to manufacturer’s instruction. […]
Provide the reported pEC50 of each item.
Give bare numbers, as −log10 of the molar value.

Worked examples, 4 compounds total:
compound="O=C(N[C@@H]1C(=O)N(c2cccn(CC(O)C(F)(F)F)c2=O)C[C@H]1c1ccc(Cl)cc1)c1ccc(OC(F)(F)F)cc1 (some centres unmarked) [Example 355]" assay_system="human FPR2 (Homo sapiens (Human))" numeric_readout=8.35
compound=COc1cc(N2C[C@@H]3C[C@H]2CN3C)nc(N2C(=O)[C@@H](NC(=O)c3ccc(OC(F)F)cc3)[C@H](c3c(F)cc(OC)cc3F)[C@H]2C)c1 assay_system="human FPR2 (Homo sapiens (Human))" numeric_readout=8.72
compound="COc1cc(F)c([C@@H]2CN(c3cccn(C4CCOC4)c3=O)C(=O)[C@H]2NC(=O)c2ccc(OC(F)F)cc2)c(F)c1 (some centres unmarked) [Example 320]" assay_system="human FPR2 (Homo sapiens (Human))" numeric_readout=8.00
compound=COc1cc(F)c([C@@H]2CN(c3cccc(C(F)F)n3)C(=O)[C@H]2NC(=O)c2ccc(OC(F)(F)F)cc2)c(F)c1 assay_system="human FPR2 (Homo sapiens (Human))" numeric_readout=7.35

Please look at the items below and tell me pEC50 for each one, in order.
1. COc1cc(F)c([C@@H]2CN(c3cccn4ccnc34)C(=O)[C@H]2NC(=O)c2ccc(Cl)cc2)c(F)c1
2. COc1cc(F)c([C@@H]2CN(c3c(C)ccn(C4CCC4)c3=O)C(=O)[C@H]2NC(=O)c2ccc(OC(F)(F)F)cc2)c(F)c1
3. COc1cc(F)c([C@@H]2CN(c3nc(NC(C)=O)ccc3F)C(=O)[C@H]2NC(=O)c2ccc(OC(F)(F)F)cc2)c(F)c1
4. COCC(C(=O)N(C)C)n1ccc(C)c(N2C[C@@H](c3ccc(OC)cc3)[C@H](NC(=O)c3ccc(OC(F)F)cc3)C2=O)c1=O (some centres unmarked)
5. COc1ccc([C@@H]2CN(c3c(C)ccn(CC(F)F)c3=O)C(=O)[C@H]2NC(=O)c2ccc(OC(F)F)cc2)cc1
6. O=C(N[C@@H]1C(=O)N(c2cccn(CCC(F)(F)F)c2=O)C[C@H]1c1ccc(Cl)cc1)c1ccc(OC(F)F)cc1
7. COc1ccc([C@@H]2CN(c3ccnn(CCC(F)(F)F)c3=O)C(=O)[C@H]2NC(=O)c2ccc(OC(F)F)cc2)cc1 [Example 672]
8. COc1ccc([C@@H]2CN(c3cccn(CC(F)F)c3=O)C(=O)[C@H]2NC(=O)c2ccc(OC(F)(F)F)cc2)cc1

Response given:
1. 8.51
2. 8.92
3. 8.27
4. 8.05
5. 9.05
6. 8.72
7. 8.10
8. 8.51

Please look at the items below and tell me pEC50 for each one, in order.
1. COc1ccc([C@@H]2CN(c3c(C)ccn(C4CCOC4)c3=O)C(=O)[C@H]2NC(=O)c2ccc(OC(F)F)cc2)cc1 (some centres unmarked)
2. COc1cc(F)c([C@@H]2CN(c3c(C)ccn(C4CCNC4)c3=O)C(=O)[C@H]2NC(=O)c2ccc(OC(F)(F)F)cc2)c(F)c1 (some centres unmarked) [Example 602]
3. COc1cc(F)c([C@@H]2CN(c3cccn(CCO)c3=O)C(=O)[C@H]2NC(=O)c2ccc(C)cc2)c(F)c1
4. CCn1cccc(N2C[C@@H](c3ccc(OC)cc3F)[C@H](NC(=O)c3ccc(OC(F)F)cc3)C2=O)c1=O [Example 226]
5. COCCn1cccc(N2C(=O)[C@@H](NC(=O)c3ccc(Cl)cc3)[C@H](c3c(F)cc(OC)cc3F)[C@@H]2C)c1=O
6. CCn1cc(C)c(C)c(N2C[C@@H](c3c(F)cc(OC)cc3F)C(NC(=O)c3ccc(OC(F)(F)F)cc3)C2=O)c1=O (some centres unmarked) [Example 639]

Response given:
1: 8.12; 2: 8.42; 3: 8.11; 4: 8.21; 5: 8.72; 6: 8.24

Please look at the items below and tell me pEC50 for each one, in order.
1. CCn1ccc(C)c(N2C[C@@H](c3c(F)cc(OC)cc3F)[C@H](NC(=O)c3ccc(OC(F)(F)F)cc3)C2=O)c1=O
2. COc1cc(F)c([C@@H]2CN(c3c(C)ccn(C4CCNCC4)c3=O)C(=O)[C@H]2NC(=O)c2ccc(Cl)cc2)c(F)c1

Response given:
8.21
9.10
